Test system: RXF 393
Assay: NCI tumour cell line growth inhibition, 48 h
Calls of active or inactive are those of the source. No stated cut-off is given here; in the data, active = GI50 up to about 1.1 µM and inactive = higher.
A correct response names exactly one class from True (active), False (inactive)

Solved cases (8 shown):
CC1CCC2(NC1)OC1CC3[C@@H]4CC=C5C=CCC[C@]5(C)C4CC[C@]3(C)C1C2C (some centres undefined) :: False
Cc1nc(N)nc(S)c1CCC(=O)O :: False
CCOc1ccccc1Nc1nc(C)c(C(=O)CC(=O)C(=O)Nc2ccccc2)s1 :: False
CCOC(=O)C(C(=O)OCC)C1C=CCC2c3ccccc3COCC21 (centres undefined) :: False
COc1cc(N(CCC#N)CCC#N)ccc1C(=N/NC(=O)c1cc(Br)ccc1O)/N=N/c1ccc(C)cc1 :: False
C#C[C@]1(O)CCCC2=CC(=O)CC[C@@]21C :: False
CC(C)=CC1C(C(=O)Oc2ccccc2C(C)C)C1(C)C (centres undefined) :: False
CCCCCCCCCCCCc1ccsc1-c1ccc(-c2ccc(-c3sc(-c4cc(CCCCCCCCCCCC)c(-c5ccc(-c6ccc(-c7sccc7CCCCCCCCCCCC)s6)s5)s4)cc3CCCCCCCCCCCC)s2)s1 :: False

Query: What was the test verdict on S=C(S)NCNC(=S)S ?
Reply: False

Query: What was the test verdict on CC(=O)/C(=N\O)C(=O)NCc1ccccc1 ?
Reply: False

Query: What was the test verdict on COC(=O)c1cc(=O)nc2sc3cccc(C)c3n12 ?
Reply: False

Query: What was the test verdict on Cc1nn(-c2ccccc2)c(-c2ccccc2[N+](=O)[O-])c1CC#N ?
Reply: False

Query: What was the test verdict on O=C1OC(c2ccc(O)c(F)c2)(c2ccc(O)c(F)c2)c2cccc3cccc1c23 ?
Reply: False

Query: What was the test verdict on OC1CN(OC/C=C/c2ccccc2)CC(O)C1O (centres undefined) ?
Reply: False

Query: What was the test verdict on O=C1C=CC2(O[C@H](c3ccccc3)[C@@H](c3ccccc3)O2)C(SC(=O)c2ccccc2)C1 (some centres undefined) ?
Reply: True

Query: What was the test verdict on COc1ccc2[nH]c(Cl)c(/C=C3/C(=O)N(c4ccccc4)c4ccccc43)c2c1 ?
Reply: False

Query: What was the test verdict on CC1=C(C)C(=O)C(C2=C(C3=CC(=O)C(C)=C(C)C3=O)C(=O)C(C)=C(C)C2=O)=CC1=O ?
Reply: False

Query: What was the test verdict on O=C(NN1C(=O)C(Cl)C1c1ccccc1Cl)c1ccccc1O (centres undefined) ?
Reply: False

Query: What was the test verdict on CCCc1cn2c(/C=N/NC(=N)N)c(-c3ccc(Cl)c([N+](=O)[O-])c3)nc2s1 ?
Reply: False

Query: What was the test verdict on COC(=O)C1=C(C(=O)OC)N(c2ccc(OC)cc2[N+](=O)[O-])C(c2ccc(C)cc2)=CC1c1ccc(OC)cc1OC (centres undefined) ?
Reply: False

Query: What was the test verdict on COc1ccc(NC(=O)CCc2cc(-c3ccc(O)c(OC)c3)nc(NC#N)n2)cc1 ?
Reply: False

Query: What was the test verdict on COc1ccc(-c2nnc(-c3ccncc3)o2)cc1 ?
Reply: False

Query: What was the test verdict on Nc1ccccc1N/C(=C\C(=O)C(Cl)(Cl)Cl)c1ccccc1 ?
Reply: False

Query: What was the test verdict on Cc1nc(N)nc(S)c1CCCNc1ccccc1 ?
Reply: False

Query: What was the test verdict on [O-][S+](c1ccc(O)cc1)c1ccc(O)cc1 ?
Reply: False

Query: What was the test verdict on O=C(Cc1ccccc1)NN1C(=O)C(Cl)C1c1cccc(O)c1 (centres undefined) ?
Reply: False

Query: What was the test verdict on O=C(Nc1ccc2nc(-c3ccccc3)cn2c1)Oc1ccccc1 ?
Reply: True

meta.source: ChEMBL document CHEMBL1201862
